Can you tell me pEC50 for the items I'm about to list?
# measured_target: CFTR-mediated chloride transport in human intestinal epithelial enteroid cells (Homo sapiens)
# Sequence (P13569 with tags, fused parts or gaps DEL508-508): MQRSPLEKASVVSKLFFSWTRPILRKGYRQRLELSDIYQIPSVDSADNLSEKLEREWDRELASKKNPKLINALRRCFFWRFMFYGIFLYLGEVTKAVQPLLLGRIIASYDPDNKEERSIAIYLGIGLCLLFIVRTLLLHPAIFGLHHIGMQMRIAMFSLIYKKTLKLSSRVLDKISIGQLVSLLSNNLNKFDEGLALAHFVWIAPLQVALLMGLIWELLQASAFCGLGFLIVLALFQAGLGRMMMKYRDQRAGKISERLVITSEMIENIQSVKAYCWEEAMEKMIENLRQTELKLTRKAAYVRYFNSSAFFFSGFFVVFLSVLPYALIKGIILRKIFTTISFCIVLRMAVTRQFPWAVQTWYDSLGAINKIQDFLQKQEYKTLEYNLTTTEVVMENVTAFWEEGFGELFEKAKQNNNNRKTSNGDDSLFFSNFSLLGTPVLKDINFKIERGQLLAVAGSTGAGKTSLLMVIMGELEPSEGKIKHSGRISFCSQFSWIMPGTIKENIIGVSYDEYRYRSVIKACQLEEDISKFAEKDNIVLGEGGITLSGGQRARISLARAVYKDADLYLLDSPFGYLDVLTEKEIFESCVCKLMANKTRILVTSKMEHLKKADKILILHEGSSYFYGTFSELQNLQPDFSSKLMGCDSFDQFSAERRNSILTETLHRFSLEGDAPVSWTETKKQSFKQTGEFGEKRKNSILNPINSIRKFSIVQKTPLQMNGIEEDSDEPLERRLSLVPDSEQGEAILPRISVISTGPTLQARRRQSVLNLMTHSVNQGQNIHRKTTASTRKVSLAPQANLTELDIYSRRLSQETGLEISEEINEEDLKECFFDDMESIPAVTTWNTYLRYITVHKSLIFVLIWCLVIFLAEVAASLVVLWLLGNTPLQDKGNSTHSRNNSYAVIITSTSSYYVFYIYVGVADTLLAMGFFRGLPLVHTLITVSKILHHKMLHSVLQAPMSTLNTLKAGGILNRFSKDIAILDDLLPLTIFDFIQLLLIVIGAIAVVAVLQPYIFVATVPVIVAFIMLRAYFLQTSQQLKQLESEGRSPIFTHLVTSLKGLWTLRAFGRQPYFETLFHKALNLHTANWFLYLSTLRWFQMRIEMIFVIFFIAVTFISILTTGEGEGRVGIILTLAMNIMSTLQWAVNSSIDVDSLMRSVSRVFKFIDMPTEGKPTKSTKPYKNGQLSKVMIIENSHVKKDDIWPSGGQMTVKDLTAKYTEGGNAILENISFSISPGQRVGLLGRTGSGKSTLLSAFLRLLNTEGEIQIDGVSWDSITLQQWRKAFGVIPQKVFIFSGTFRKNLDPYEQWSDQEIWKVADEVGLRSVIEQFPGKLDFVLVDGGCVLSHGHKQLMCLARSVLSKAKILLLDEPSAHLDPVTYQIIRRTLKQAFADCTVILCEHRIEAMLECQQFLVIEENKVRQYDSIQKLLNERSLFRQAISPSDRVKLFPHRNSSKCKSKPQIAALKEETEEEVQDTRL
# assay_name: Membrane potential dye, Enteroid Assay B
# Assay type: cell-based
# recorded_conditions: enteroid cells incubated with test compound 18-24 hours; acute 10 μM forskolin and 300 nM N-[2,4-bis(1,1-dimethylethyl)-5-hydroxyphenyl]-1,4-dihydro-4-oxoquinoline-3-carboxamide; read-out: Ent. B EC50
pEC50: −log10 of the molar value.

Answer with the recorded pEC50 for the molecule listed here: Cc1cccc(C)c1-c1cc2nc(n1)NS(=O)(=O)c1cccc(c1)C(=O)N1CCN(CCC(C)(C)C)C[C@@H]1CO2 [Compound 298] > 6.00

// fetch pEC50 given entry Cc1cccc(C)c1-c1cc2nc(n1)NS(=O)(=O)c1cccc(c1)C(=O)N1Cc3ccccc3[C@H](C1)O2 (stereo in doubt) [Compound 319] > 6.00

Give me measured pEC50, please, for this molecule: Cc1cccc(C)c1-c1cc2nc(n1)NS(=O)(=O)c1cccc(c1)C(=O)N1CCN(CCC(C)(C)C)C[C@H](C1)O2 [Compound 1] > 6.00
